Target: T1, MntR E11K (Bacillus subtilis, UniProt P54512 1-142, E11K)
T1 sequence: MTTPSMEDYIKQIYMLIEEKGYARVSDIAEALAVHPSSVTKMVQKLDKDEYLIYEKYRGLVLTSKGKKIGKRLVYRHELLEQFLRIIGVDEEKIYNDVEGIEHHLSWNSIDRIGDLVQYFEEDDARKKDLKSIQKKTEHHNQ
Assay: fluorescence anisotropy
Quantity measured: Kd (nM)
Report only the number, with the unit nM understood.

Data request: Provide measured Kd value, entry: mntH operator 21 bp (dsDNA) DNA 1: GAGTTTCCTTAAGGCAAATTG DNA 2: CAATTTGCCTTAAGGAAACTC
Data returned: 2.4
